Let's look at some compounds and their measured pIC50.
# system-under-test: Pseudomonas aeruginosa LpxC enzyme (Pseudomonas aeruginosa (strain ATCC 15692 / DSM 22644 / CIP 104116 / JCM 14847 / LMG 12228 / 1C / PRS 101 / PAO1), UniProt P47205)
# assay-explanation: biochemical
# Format: biochemical
# protocol-conditions: inhibitory activity on Pseudomonas aeruginosa LpxC enzyme, class symbols A/B/C; read-out: Enzyme inhibitory activity
pIC50: −log10 of the molar value.

Sample answers from the record:
Query: Using the record for CN(C)C(=O)C(C(=O)NO)N(C)C(=O)c1ccc(-c2ccccc2)cc1 (centres unmarked) , report its pIC50.
Reply: < 7.00

Query: Please answer likewise for CNC(=O)C(C(=O)NO)N(C)C(=O)c1ccc(-c2ccc(NCc3cccnc3)cc2)cc1 (centres unmarked)
Reply: > 8.00

Query: Please answer likewise for CNC(=O)C(C(=O)NO)N(C)C(=O)c1ccc(C#Cc2ccc(CNCC(C)(C)C)cc2)cc1 (centres unmarked)
Reply: > 8.00

Query: Please answer likewise for CC(C)(C)NC(=O)C(NC(=O)c1ccc(-c2ccc(OCCO)cc2)cc1)C(=O)NO (centres unmarked)
Reply: < 7.00

Query: Please answer likewise for CCCNC(=O)C(C(=O)NO)N(C)C(=O)c1ccc(-c2ccccc2)cc1 (centres unmarked)
Reply: < 7.00

More entries:
Query: Using the record for CNC(=O)C(C(=O)NO)N(C)C(=O)c1ccc(C#Cc2ccc(CN3CC(C)(O)C3)cc2)cc1 (centres unmarked) , report its pIC50.
Reply: > 8.00

Query: Please answer likewise for CNC(=O)C(C(=O)NO)N(C)C(=O)c1ccc(-c2ccc(CNCC(F)F)cc2)cc1 (centres unmarked)
Reply: 7.00 to 8.00

Query: Please answer likewise for CNC(=O)C(C(=O)NO)N(C(=O)c1ccc(-c2ccccc2)cc1)C1CCC1 (centres unmarked)
Reply: 7.00 to 8.00

Query: Please answer likewise for CNC(=O)C(C(=O)NO)N(C)C(=O)c1ccc(-c2cccc(C)c2)cc1 (centres unmarked)
Reply: > 8.00

Query: Please answer likewise for CNC(=O)C(C(=O)NO)N(C)C(=O)c1ccc(-c2cncc(OC)c2)cc1 (centres unmarked)
Reply: < 7.00

Query: Please answer likewise for CNC(=O)C(C(=O)NO)N(CC(F)F)C(=O)c1ccc(-c2ccc(OCCCN3CCOCC3)cc2)cc1 (centres unmarked)
Reply: > 8.00

Query: Please answer likewise for CCCc1ccc(-c2ccc(C(=O)N(C)C(C(=O)NC)C(=O)NO)cc2)cc1 (centres unmarked)
Reply: > 8.00

Query: Please answer likewise for CNC(=O)C(C(=O)NO)N(C)C(=O)c1ccc(-c2ccc(S(C)(=O)=O)cc2)cc1 (centres unmarked)
Reply: 7.00 to 8.00

Query: Please answer likewise for CNC(=O)C(C(=O)NO)N(C)C(=O)c1ccc(C#Cc2ccn(C)c2)cc1 (centres unmarked)
Reply: 7.00 to 8.00
